- Assay details: soluble on expression in E. coli; label from the status in PepcDB or PDB records
Measurement label: soluble on expression in E. coli

sequence=MQIITTTFIQKVILGSHQLHEQLSIVEARMIESAIVSMLTESFCENEQTLKYLARLLSPMSYMDVINARRGKKICGYPLCYKSAAENSSDGFFIHSMYCNNYHSKCSLYLMRQLSQTPLHERRGVHLTSYINLEFDDMYSVSLLEELVGSEVPIDTVKSLITSFKDLEFDDTYKNEPLPLDVYFGQLTTDEETCIE result="not soluble"
sequence=QVEVIVMMHGRSTATSMVETVQELLSIESGIALDMPLTVEVKAMYEKLKQTVVKLNPVKGVLILSDMGSLTSFGNILTEELGIRTKTVTMVSTPVVLEAMRKASLGRGLEDIYQSCEQLFENKYKAHVLRAKP result="not soluble"

----------
- Assay details: soluble on expression in E. coli; label from the status in PepcDB or PDB records
Measurement label: soluble on expression in E. coli

Answered cases to consult:
sequence=MRITIYTRNDCVQCHATKRAMENRGFDFEMINVDRVPEAAEALRAQGFRQLPVVIAGDLSWSGFRPDMINRLHPAPHAASA result=soluble
sequence=SVTIDHTTENAAPAQAPVSDRAWALFRALDGKGLVPDGYVEGWKKTFEEDFSPRRGAELVARAWTPRRGAELVARAWTDPEFRQLLLTDGTAAVAQYGYLGPQGEYIVAVEDTPTLKNVIVCSLCSCTAWPILGLPPTWYKSFEYRARVVREPRKVLSEMGTEIASDIEIRVYDTTAETRYMVLPQRPAGTEGWSQEQLQEIVTKDCLIGVAIPQVPTV result=soluble
sequence=MSLDAENRAFYKIFTLKNNNLCKNSTLLEKIFKNNVEEFDFSLVKQNLEHEKNCVITSTMNQTIFFENMNSKEMGNKAYSFFNQTVLNNKGNTSLEEQISDIFDRCVYMNAEKSSSYIKLLEQDYNQVDMFVSLIFIGPYRHNLILITPVTLHLTLIPKNVKNNSFKNLFSGDMHFNMVTMTHLTEGHHHHHH result=soluble
sequence=MKKPNGTNGASSSLEPPPSTFQPLCHPLVEEVSKEVDGYFLQHWNFPNEKARKKFVAAGFSRVTCLYFPKALDDRIHFACRLLTVLFLIDDLLEYMSFEEGSAYNEKLIPISRGDVLPDRSIPVEYIIYDLWESMRAHDREMADEILEPVFLFMRAQTDRTRARPMGLGGYLEYRERDVGKELLAALMRFSMGLKLSPSELQRVREIDANCSKHLSVVNDIYSYEKELYTSKTAHSEGGILCTSVQILAQEADVTAEAAKRVLFVMCREWELRHQLLVARLSAEGLETPGLAAYVEGLEYQMSGNELWSQTTLRYSVVVD result=soluble
sequence=MAHHHHHHMRARRSCKFAEYLSTYAILEHIGIHPTTLIEKRDAAVGVGVYVRDACDAGTALLAVPSKRFCTTSVLSRVGLKTSFCSPWRADSEVPSTAFAGPTCDVQGGILSFLTGSTQWPELAWRLALEQHRSVSPLWGWLQSLPSVEELADRRDVAERQCRVHHTMLLPYYLKGRQRIREETVAAYSQLRAQNILPCFDRFAWAVDVVLSRGLLLPTAWPTAGGVFTNSTTDGEHEEEDSDPLPHTSLECGVVPFLDLVNAPDDVGRVVNADIEIATSLETLPKFLTDELAADATARGRGGDDLAEVKRLLETHYYLCLTLRKPLRASEEVILEWQVPVLTTEVLTAAEDAIVSRFLKYMF result="not soluble"

Look at this sequence and give its reported soluble on expression in E. coli. `MAHHHHHHMQFHQFLCRFRNQVLLKGAFWSCPHQFRLGLHDRWKVNLVKVHIGVLGFFFKTHGESVVSGAKGDNLHGCRNGGVSALKVTNAFLNKIRNDQHTQIVPTIYQRGTPRQLSHEMSKIRILKVPMEHRRAFAHDTVIVSTLHRSVKTDVRGDTHRGTVLLHWKMHCLR`
not soluble

----------
- Assay details: soluble on expression in E. coli; label from the status in PepcDB or PDB records
Measurement label: soluble on expression in E. coli

sequence=MGHHHHHHSHMGVAGTPGLPESPDKSPVGRKKSKGLATRLSRRRVSCRELGRPDCDGWLLLRKAPGGFMGPRWRRRWFVLKGHTLYWYRQPQDEKAEGLINVSNYSLESGHDQKKKYVFQLTHDVYKPFIFAADTLTDLSMWVRHLITCISKYQSP measurement_label="soluble on expression in E. coli" result=soluble
sequence=MSPGAWPRPRVVVSACLGFAAVRYSGELIPDKVVAALKEHVDFVPVCPEVEIGLGVPRPVVRLVRGEGGGPRMVQPKTGEDLTERMRAFSQRFLQGLGEVEGFLLKNRSPSCALKDAKRYAHAEGGGVVGKGPGLFAQAVEEAFPLLPKEDEGRLTNPRIRAHFFTRIFALARLRRVEDLPGLMAFHARYKLLLLAYNQKEARALGRLLAGAKGRPFPEVHGAYEEGFLRATERPWRLGAMADALLHAFGHFKKALAPREKAHFLDLLADFREERLPLEAPLALLASWARRFAEPYVEAQALLEPYPRALMHVPGA measurement_label="soluble on expression in E. coli" result=soluble

----------
- Assay details: soluble on expression in E. coli; label from the status in PepcDB or PDB records
Measurement label: soluble on expression in E. coli

sequence=MGRRRSHERRDLPPNLYIRNNGYYCYRDPRTGKEFGLGRDRRIAITEAIQANIELFSGHKHKPLTARINSDNSVTLHSWLDRYEKILASRGIKQKTLINYMSKIKAIRRGLPDAPLEDITTKEIAAMLNGYIDEGKAASAKLIRSTLSDAFREAIAEGHITTNHVAATRAAKSEVRRSRLTADEYLKIYQAAESSPCWLRLAMELAVVTGQRVGDLCEMKWSDIVDGYLYVEQSKTGVKIAIPTALHIDALGISMKETLDKCKEILGGETIIASTRREPLSSGTVSRYFMRARKASGLSFEGDPPTFHELRSLSARLYEKQISDKFAQHLLGHKSDTMASQFRDDRGREWDKIEIK measurement_label="soluble on expression in E. coli" result=soluble
sequence=GPGSMMRRVGDYEILDVVGEGAYSKVKRVRHIPTGCMFVAKIVPKTNQQVENDVRLEISILRRLKHKNIVQLIEILESTNNYYIILEPVMGGDLCDIIVGMDRPLPEQDVAALLIQLVAGVRACHRNGVAHRDLKPENLLLGTDGVLKISDFGLSRLHRESNFQASTNEYAHTLTGTLAYLAPEVFGGSYDAFRADIWSMGCIAYVLLTQNFPFGSTTDPHALEVRIRNGEVSVMPSSVSAEAKNLCKWLLSPRPEDRPTLDAVAQHDFFKRYLPAEYLRMTANRKSPIVHGANMNEFSSQVQEEAPSCSPSTATAKRKHQYVRSGSAARTSPSSSAVAGAATSSNRSSESGRDREDLVSHGTQGESDPGGYCGDV measurement_label="soluble on expression in E. coli" result=soluble

----------
- Assay details: soluble on expression in E. coli; label from the status in PepcDB or PDB records
Measurement label: soluble on expression in E. coli

sequence=MGHHHHHHSHFRNCILGLAVGDALGMPVEGLSIENIRQLYGEVRDFLPSPYGDLNAGEWTDDTEQMVVLAESILETVYFDPENFAERLKRWFLETNSRRIGPSSTKAISNLMRGVHWTRAGVFSDTCGAAMRVAPIGLVYHFSLNLVERYAEISARVTHTGTAAIGGAVAVAVAIACNVLDFSDEEMLEEVLRRVEAYDNLLAEKIRYANEISDRDVEYAVEKLGNSISSLDVVPMAFYSYFAGKDFEESLIKAVNAGGDADSIAAICGAIKGAKGFAIPERWLEGLKDREFLEELATK result="not soluble"
sequence=MKIIGFACQWCAYQAADLAGSLKMKYPESIRLLRVPCSGRVNAEFILKALLSGADGVFVAGCPISECHYRSGNRIAKTKVALLKRLLPEFGLESGRVEFLQVSSADARKFVEFAKEFDERIRKLGPNPLRRDER result="not soluble"
sequence=MSSFIEMIENITPDVYESLKLAVEIGKWSDGRKLTQEQRELSLQALIAWEAQNLPEDQRTGYMGPQECASKSAPVPNILFKSDAIH result="not soluble"

----------
- Assay details: soluble on expression in E. coli; label from the status in PepcDB or PDB records
Measurement label: soluble on expression in E. coli

Answered cases to consult:
sequence=MASESSIDEKKKKAQVTQSNINKNTPQQLTDKDLFGNETTLAVSEEDIQAALDGDEFRVPLNSPVILVQSGNRAPETIMQEEMRKYYTVSTFSGIPDRQKPLTCNKNKDKNENEDVASAENMNWMQALRFVAAKGHQKAIIVYQDMLQTGKYDSALKSTVWSDYKNDKLTDAISLRYLVRFTLVDVATGEWATWSPVNYEYKVLPPLPDKNEASTTDMTEQQIMQLKQKTYKAMVKDLVNRYQLEHHHHHH result="not soluble"
sequence=MNLFYNPKGVGDVAFIQIEPSVGPFEYEQKHGVVEIKKENEVVGYNIFNVSNNVTINDNGHIKLTTELIKDLQQLITEAGFDYQLDTDVSPKFVVGYVETKEKHPNADKLSVLNVNVGTEKLQIVCGAPNVESGQKVVVAKVGAVMPSGMVIKDAQLRGVDSSGMICSMKELNLPNAPKEKGIMVLNDDYDIGQAFFELEHHHHHH result=soluble
sequence=MSENSIRLTQYSHGAGCGCKISPKVLETILHSEQAKFVDPNLLVGNETRDDAAVYDLGNGTSVISTTDFFMPIVDNPFDFGRIAATNAISDIFAMGGKPIMAIAILGWPINKLSPEIAREVTEGGRYACRQAGIALAGGHSIDAPEPIFGLAVTGIVPTERVKKNSTAQAGCKLFLTKPLGIGVLTTAEKKSLLKPEHQGLATEVMCRMNIAGASFANIEGVKAMTDVTGFGLLGHLSEMCQGAGVQARVDYEAIPKLPGVEEYIKLGAVPGGTERNFASYGHLMGEMPREVRDLLCDPQTSGGLLLAVMPEAENEVKATAAEFGIELTAIGELVPARGGRAMVEIR result=soluble
sequence=MALREMIIDESDDIESYSDQSLCLDKAKELLALIKLPTGLLPLKDMTEVGYNKTKGFVWMRMRSKIEHTFREIGRRVLYDTEITAFVEDRRMRRLTGVKSKELMIWVPVNDIFIKRKILRRSPLLIPPACHEHLKFQHFNVRVDKLKEKRSNQTSLM result="not soluble"
sequence=MKIATYNVRVDTEYDQDWQWSFRKEAVCQLINFHDWSLCCIQEVRPNQVRDLKAYTTFTCLSAEREGDGQGEGLAILYNEQKVQAIDTGYFWLSETPQQPSIHPEAGCPRIALWGLFKETTQNTPFLVINVHLDHISAHARLAGMTVILEELHDKIAQYPTLLMGDFNAESGEEVHQLVQKKFQDSKNLATHYGPRGTFQNFTYTKPWAELEEIDYIYVKGWQVQQTASLTDSIDGRFPSDHFPLEAEVAGENLYFQ result=soluble

Look at this sequence and give its reported soluble on expression in E. coli. `GMREDMKDNVVKDKSLEFAVRIVNLYKFLVNEQKEFVMSKQILRSGTSIGANIREAEQAQSRADFINKLNIALKEANETEYWLELLIRTEYITREQYESINNDSTEINKLLISIIKTTKNN`
soluble

Look at this sequence and give its reported soluble on expression in E. coli. `MRAELQAETEAERLERQAKLHELLHRLRGEPNVLLPFHQALALRPRGERHLGLRTIEVDKVVGSVDRYEDFDHRFLPKTPHTLERWKRLRALQLAGAEFPPIEVYQVGEAYFVKDGNHRVALAKATGQKFIDAHVIALDVPVPIEPGDTPKDLLLKAEYAHFLEKTRLKDLVPGAEEIRFTALGRYDRLLDHIATRRYFKGLEEGREISWEEAVVDWYENLYKPTVEAIRRLGLLRDFPGRTEADLYLWVMDHRYFLARELGVDPGPEGAAKSYEAHFGGVWKRLGGGLKRLLTGR`
soluble
